System: MCF-7 breast adenocarcinoma cells
Assay: MCF-7 Proliferation Assay
Type: cell-based
Condition set: Homo sapiens, MCF7, tritiated thymidine, 48 hours
Measured parameter: IC50 (nM)

Oc1ccc(-c2ccc(-c3ccc(F)cc3)nc2-c2ccc(OCCN3CCCCC3)cc2)cc1: 185

(1) Oc1ccc(-c2ccc(-c3ccc(O)cc3)c(-c3ccc(OCCN4CCCC4)cc3)n2)cc1
(2) COc1ccc(-c2ccc(-c3ccc(F)cc3)nc2-c2ccc(OCCN3CCCCC3)cc2)cc1
Consider 1 and 2 . Which of these has its IC50 at a higher number? To answer, give the label that identifies your chosen option.
2

###

Test system: Uterine Eosinophil Peroxidase (EPO)
Assay: Uterine Eosinophil Peroxidase (EPO) Assay (Table 1)
Format: in vivo, female Sprague Dawley rats
Design: key: Vmax of absorbance increase at 450 nm, monitored over 1 min
Condition set: OVX rats, 25 mg/kg oral, daily for 4 days
Measured Uterine EPO (V. max), listed per entry.
// no unit string in output, number only

A selection of reference data follows.
Cc1ccc(-c2ccc(O)cc2)c(-c2ccc(OCCN3CCOCC3)cc2)n1: 4.4
Cc1ccc(-c2ccc(O)cc2)c(-c2ccc(OCCN3CCCCC3)cc2)n1: 6.8
COc1ccc(-c2ccc(C)nc2-c2ccc(OCCN(C)C)cc2)cc1: 2.3
COc1ccc(-c2ccc(C)nc2-c2ccc(OCCN3CCCC3)cc2)cc1: 59.8
Oc1ccc(-c2ccc(-c3ccc(F)cc3)nc2-c2ccc(OCCN3CCCCC3)cc2)cc1: 67.9

// returns reported Uterine EPO (V. max) for input `COc1ccc(-c2ccc(C)nc2-c2ccc(OCCN3CCOCC3)cc2)cc1`
3.8

Note, next up: `COc1ccc(-c2ccc(-c3ccc(F)cc3)nc2-c2ccc(OCCN3CCCCC3)cc2)cc1`
22.6

Note, next up: `COc1ccc(-c2ccc(C)nc2-c2ccc(OCCN3CCCCC3)cc2)cc1`
3.6

Note, next up: `Cc1ccc(-c2ccc(O)cc2)c(-c2ccc(OCCN(C)C)cc2)n1`
58.6
